ASSAY PROTOCOL: in vitro
Type: in vitro ADME
CONDITION: human liver microsomes, 0.5 mg/mL microsomal protein, 1 mM NADPH, 37° C., 60 min, N=1
VALUE KIND: Percentage Remaining 60 min (%)
Please respond with the number in % and leave the unit unwritten.

The following compounds have reported results that may help.
According to the records, this compound `[2H][C@@]1(N2CCN(c3cc(C)nn3-c3ccccc3)CC2)CN[C@H](C(=O)N2CCSC2)C1` displays Percentage Remaining 60 min of 60

According to the records, this compound [2H]C1([2H])CSC([2H])([2H])N1C(=O)C1CC(N2CCN(c3cc(C)nn3-c3ccccc3)CC2)CN1 (stereo not shown) displays Percentage Remaining 60 min of 60

According to the records, this compound Cc1cc(N2CCN([C@@H]3CN[C@H](C(=O)N4CCSC4)C3)CC2)n(-c2ccccc2)n1 [Teneligliptin, reference compound] displays Percentage Remaining 60 min of 55

New cases:
According to the records, this compound `[2H]c1ccc(-n2nc(C)cc2N2CCN([C@@H]3CN[C@H](C(=O)N4CCSC4)C3)CC2)cc1` displays Percentage Remaining 60 min of 65
